Hey, just so you know, these numbers are from ChEMBL document CHEMBL3745705.

- EXPERIMENT_DESCRIPTION: Volume of distribution at steady state in Brown Norway rat at 10 mg/kg, po or 1 mg/kg, iv by LC-MS/MS analysis
- Format: ADME, organism-based
- SETUP_CONDITIONS: in vivo, read-out: Vdss
MEASUREMENT_LABEL: Vd (L/kg)
Give the value, in units of L/kg, as a plain number.

Data point: CC1(c2cc(NC(=O)n3ccc4cc(Oc5ncnc6c5CCNC6)ccc43)n[nH]2)CC1 ; Vd = 22

* * *

- Test system: Rattus norvegicus
- EXPERIMENT_DESCRIPTION: AUC (0 to 8 hrs) in Brown Norway rat at 10 mg/kg, po by LC-MS/MS analysis
- Type: ADME, organism-based
- Parameters: dose 10 mg/kg, time < 8 hr, route oral
- SETUP_CONDITIONS: in vivo
MEASUREMENT_LABEL: AUC (nM·h)
Just the number in nM·h, nothing appended.

Value of AUC reported for the molecule CC1(c2cc(NC(=O)n3ccc4cc(Oc5ncnc6c5CCNC6)ccc43)n[nH]2)CC1 is 1120

* * *

- System: Mus musculus
- EXPERIMENT_DESCRIPTION: Antiangiogenic activity in po dosed C57BL/6 mouse laser-induced choroidal neovascularization assessed as inhibition of neovascular lesion formation administered qd for 6 days measured on day 7 by microscopic analysis
- Assay type: functional
- SETUP_CONDITIONS: C57BL/6, po
Measured ED90 accompanies every entry in the list below.
Quick note: give the figure in mg/kg, leave out the unit.

Solved cases below.
Lab book: ED90 of CC1(c2cc(NC(=O)n3ccc4cc(Oc5ncnc6c5CCNC6)ccc43)n[nH]2)CC1 noted as 25.3

Consider C[C@H]1Cc2c(ncnc2Oc2ccc3c(ccn3C(=O)Nc3cc(C4(C)CC4)n[nH]3)c2)CN1 . Its measured ED90 is 19.6

Per the record, O=C(Nc1cc(C2CC2)on1)n1ccc2cc(Oc3ncnc4c3CNC4)ccc21 has ED90 of 4.8

Notebook: O=C(Nc1cccc(C(F)(F)F)c1)n1ccc2cc(Oc3ncnc4c3CNC4)ccc21 , ED90 read as 31

Now look at this entry.
For reference, reported ED90 for C[C@H]1Cc2c(ncnc2Oc2ccc3c(ccn3C(=O)Nc3cccc(C(F)(F)F)c3)c2)CN1 stands at 8.5
